Where do these numbers come from? They come from PubChem BioAssay AID1159580.

- assay.method.text: chemical genetic growth profiling, strain panel (AID 1159580);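 note: tested at 20 µM; growth read once vehicle control cultures reached saturation at 30 °C; lower values mean less growth of the strain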
- test.parameters: S. cerevisiae deletion strains, growth OD, locus YOL012C, strain htz1
Hit rate of the full screen: of about 5,500 compounds, about 2,000 (36%) were called active. Roughly 18% stayed inconclusive and do not appear here. Cut-off read from the data, not from the text of the source: active = normalized growth mostly below about 0.91 (no sharp cut-off); inconclusive = no clear call, values can overlap the other calls; inactive = mostly above about 0.92. Some of the results follow.
Outcomes: active, inactive

{"columns": ["compound", "discrete.label"],
 "data": [
  ["CC(N)C(=O)OC(C)(C)Cc1ccc(Cl)cc1 (stereo not drawn)", "inactive"],
  ["CCCCNc1cc(C(=O)O)cc(S(N)(=O)=O)c1Oc1ccccc1", "inactive"],
  ["CCOC(=O)[C@H](CCc1ccccc1)N[C@H]1CCc2ccccc2N(CC(=O)O)C1=O", "inactive"],
  ["COc1cc2c(cc1OC)C1C(=O)c3c(O)cc4c(c3OC1CO2)C=CC(C)(C)O4 (stereo not drawn)", "inactive"],
  ["O=C(O)C1(O)C[C@@H](O)C(O)[C@H](O)C1 (stereo partly drawn)", "inactive"],
  ["CCN(CC)CCNC(=O)c1cc(Br)c(N)cc1OC", "inactive"],
  ["C=C1C([C@]2(C)C(CC(=O)OC)[C@@](C)(COC(C)=O)OC(=O)C[C@@H]2OC(C)=O)[C@@H](OC=O)[C@H](OC(=O)C(OC(C)=O)C(C)CC)[C@@]2(C)[C@H](c3ccoc3)CC(=O)C12O (stereo partly drawn)", "inactive"],
  ["CN(C)C(=S)SSC(=S)N(C)C", "active"],
  ["Cc1cc(O)c(C)c(O)c1C(=O)O", "inactive"],
  ["CC(C)OC(=O)C(C)(C)Oc1ccc(C(=O)c2ccc(Cl)cc2)cc1", "inactive"],
  ["COc1ccc2c(C)cc(=O)oc2c1", "inactive"],
  ["C[C@]12CCC(=O)C=C1CCC1C2CC[C@@]2(C)C1CC[C@@H]2O (stereo partly drawn)", "inactive"],
  ["COc1cc2c(cc1OC)C(=O)OC2", "inactive"],
  ["CCC(=O)O[C@H]1CCC2C3CCC4=CC(=O)CC[C@]4(C)C3CC[C@@]21C (stereo partly drawn)", "inactive"],
  ["CN1CCC(=C2c3ccccc3Sc3ccccc32)CC1", "inactive"],
  ["CCOC(=O)C(C)(C)Oc1ccc(Cl)cc1", "inactive"],
  ["CC[C@H](/C=C/C(C)C1CCC2C3CCC4=CC(=O)CC[C@]4(C)C3CC[C@]12C)C(C)C (stereo partly drawn)", "inactive"],
  ["CC(=O)C1CCC2C3CC(=O)C4=CC(=O)CCC4(C)C3CCC12C (stereo not drawn)", "inactive"]
]}
